Assay: in vitro
Assay type: cell-based
Details: African green monkey (COS-1) and Chinese hamster (CHO-K1)
Procedure: COS-1 and CHO-K1 cell suspensions were prepared, seeded into 96-well tissue culture treated black-walled microtiter plates (density determined by cell line), and incubated overnight at 37° C., in 5% CO2 and approximately 95% humidity. The following day, serial dilutions of drug were prepared under sterile conditions and transferred to cell plates. Cell/Drug plates were incubated under the above conditions for 24 hours. […] Fluorescence measurements were taken (excitation 535 nm, emission 590 nm).
measured quantity: IC50 at 24 h

>  <compound>
CN(C)c1ccc(O)c2c1CC1CC3[C@H](N(C)C)C(O)=C(C(N)=O)C(=O)C3(O)C(O)=C1C2=O (some centres unmarked)

>  <measured quantity>
IC50 at 24 h

>  <endpoint result>
> 25 µg/mL

$$$$

// below: IC50 at 24 h requested for another compound
Given the compound CC1c2cccc(O)c2C(=O)C2=C(O)C3(O)C(=O)C(C(N)=O)=C(O)C(N(C)C)C3C(O)C21 (centres unmarked) , what is its reported IC50 at 24 h?
> 25 µg/mL

---

Test system: E. coli mL308 225
Experiment: In Vitro Anti-Bacterial Activity Assay (MIC), gram negative
Assay type: cell-based
Conditions: Escherichia coli, ML308225, 18 h, gram negative bacteria; read-out: Antibiotic Activity Gram − (MIC)
measured quantity: MIC

Worked cases, MIC given:
>  <molecule>
CN(C)c1cc(CNC(=O)[C@@H]2CCCN2C)c(O)c2c1C[C@H]1C[C@H]3[C@H](N(C)C)C(O)=C(C(N)=O)C(=O)[C@@]3(O)C(O)=C1C2=O

>  <MIC>
> 4 µg/mL

$$$$
>  <molecule>
CN(C)[C@@H]1C(O)=C(C(N)=O)C(=O)[C@@]2(O)C(O)=C3C(=O)c4c(O)c(CN5CCCCC5)cc(-c5ccccn5)c4C[C@H]3C[C@@H]12

>  <MIC>
> 4 µg/mL

$$$$
>  <molecule>
CC(C)c1cccc(-c2ccc(O)c3c2C[C@H]2C[C@H]4[C@H](N(C)C)C(O)=C(C(N)=O)C(=O)[C@@]4(O)C(O)=C2C3=O)c1

>  <MIC>
< 4 µg/mL

$$$$
>  <molecule>
CN(C)c1cc(CNC(=O)C2CCCN2)c(O)c2c1C[C@H]1C[C@H]3[C@H](N(C)C)C(O)=C(C(N)=O)C(=O)[C@@]3(O)C(O)=C1C2=O (some centres unmarked)

>  <MIC>
> 4 µg/mL

$$$$
>  <molecule>
CN(C)[C@@H]1C(O)=C(C(N)=O)C(=O)[C@@]2(O)C(O)=C3C(=O)c4c(O)c(CN5CCCCC5)cc(-c5ccoc5)c4C[C@H]3C[C@@H]12 [drawing 3602]

>  <MIC>
> 4 µg/mL

$$$$

// below: MIC requested for another molecule
Please provide the recorded MIC for CN(C)c1cc(NCc2ccccc2C[C@H]2O[C@@H](CO)[C@@H](O)[C@@H](O)[C@H]2O)c(O)c2c1C[C@H]1C[C@H]3[C@H](N(C)C)C(O)=C(C(N)=O)C(=O)[C@@]3(O)C(O)=C1C2=O , tested on E. coli mL308 225.
> 4 µg/mL

---

Tested on: E. coli mL308 225
Assay: In Vitro Anti-Bacterial Activity Assay (MIC), gram negative
Assay type: cell-based
Conditions: Escherichia coli, ML308225, 18 h, read-out: Antibiotic Activity Gram − (MIC)
measured quantity: MIC

Worked cases, MIC given:
>  <compound>
CN(C)c1cc(NC(=O)Oc2ccc(O)cc2)c(O)c2c1C[C@H]1C[C@H]3[C@H](N(C)C)C(O)=C(C(N)=O)C(=O)[C@@]3(O)C(O)=C1C2=O

>  <target under test>
E. coli mL308 225

>  <MIC>
> 4 µg/mL

$$$$
>  <compound>
CN(C)[C@@H]1C(O)=C(C(N)=O)C(=O)[C@@]2(O)C(O)=C3C(=O)c4c(O)ccc(-c5ccc(CNCCF)cc5)c4C[C@H]3C[C@@H]12

>  <target under test>
E. coli mL308 225

>  <MIC>
< 4 µg/mL

$$$$
>  <compound>
CC(CF)NCc1ccc(O)c2c1C[C@H]1C[C@H]3[C@H](N(C)C)C(O)=C(C(N)=O)C(=O)[C@@]3(O)C(O)=C1C2=O (stereo partly drawn)

>  <target under test>
E. coli mL308 225

>  <MIC>
> 4 µg/mL

$$$$
>  <compound>
CNC(=O)Oc1ccc(-c2ccc(O)c3c2C[C@H]2C[C@H]4[C@H](N(C)C)C(O)=C(C(N)=O)C(=O)[C@@]4(O)C(O)=C2C3=O)cc1

>  <target under test>
E. coli mL308 225

>  <MIC>
< 4 µg/mL

$$$$
>  <compound>
CC(CF)NCc1cc(N(C)C)c2c(c1O)C(=O)C1=C(O)[C@]3(O)C(=O)C(C(N)=O)=C(O)[C@@H](N(C)C)[C@@H]3C[C@@H]1C2 (stereo partly drawn)

>  <target under test>
E. coli mL308 225

>  <MIC>
> 4 µg/mL

$$$$

Given the compound CC(CF)N(C)Cc1cc(N(C)C)c2c(c1O)C(=O)C1=C(O)[C@]3(O)C(=O)C(C(N)=O)=C(O)[C@@H](N(C)C)[C@@H]3C[C@@H]1C2 (stereo partly drawn) , what is its reported MIC?
> 4 µg/mL

---

Measured MIC, listed per entry.
Tested on: S. aureus RN450
Experiment: In Vitro Anti-Bacterial Activity Assay (MIC), gram positive
Assay type: cell-based
Settings: Staphylococcus aureus, RN450, 18 h, read-out: Antibiotic Activity Gram +

>  <compound>
CN(C)c1cc(CNC(=O)Oc2ccccc2)c(O)c2c1C[C@H]1C[C@H]3[C@H](N(C)C)C(O)=C(C(N)=O)C(=O)[C@@]3(O)C(O)=C1C2=O

>  <target under test>
S. aureus RN450

>  <MIC>
< 4 µg/mL

$$$$
>  <compound>
CCOP(=O)(OCC)C(Nc1ccccc1)c1ccc(-c2cc(N(C)C)c3c(c2O)C(=O)C2=C(O)[C@]4(O)C(=O)C(C(N)=O)=C(O)C(N(C)C)[C@@H]4C[C@@H]2C3)cc1 (some centres unmarked)

>  <target under test>
S. aureus RN450

>  <MIC>
< 4 µg/mL

$$$$
>  <compound>
Cc1ccc(OC(=O)NCc2cc(N(C)C)c3c(c2O)C(=O)C2=C(O)[C@]4(O)C(=O)C(C(N)=O)=C(O)[C@@H](N(C)C)[C@@H]4C[C@@H]2C3)cc1

>  <target under test>
S. aureus RN450

>  <MIC>
< 4 µg/mL

$$$$
>  <compound>
CN(C)c1cc(CNC(=O)Oc2ccc(F)cc2)c(O)c2c1C[C@H]1C[C@H]3[C@H](N(C)C)C(O)=C(C(N)=O)C(=O)[C@@]3(O)C(O)=C1C2=O

>  <target under test>
S. aureus RN450

>  <MIC>
< 4 µg/mL

$$$$

// below: MIC requested for another compound
Given the compound C[C@H]1c2ccc(NC(=O)Oc3ccc(F)cc3)c(O)c2C(=O)C2=C(O)[C@]3(O)C(=O)C(C(N)=O)=C(O)[C@@H](N(C)C)[C@@H]3[C@@H](O)[C@@H]21 , what is its reported MIC?
> 4 µg/mL

---

System: S. aureus RN450
Assay: In Vitro Anti-Bacterial Activity Assay (MIC), gram positive
Assay type: cell-based
Conditions: Staphylococcus aureus, RN450, 18 h, gram positive bacteria; read-out: Antibiotic Activity Gram + (MIC)
measured quantity: MIC

Worked cases, MIC given:
>  <molecule>
Cc1cc(-c2ccc(O)c3c2C[C@H]2C[C@H]4[C@H](N(C)C)C(O)=C(C(N)=O)C(=O)[C@@]4(O)C(O)=C2C3=O)ccc1F

>  <target under test>
S. aureus RN450

>  <endpoint result>
< 4 µg/mL

$$$$
>  <molecule>
CN(C)[C@@H]1C(O)=C(C(N)=O)C(=O)[C@@]2(O)C(O)=C3C(=O)c4c(O)ccc(CCC(=O)N5CCOCC5)c4C[C@H]3C[C@@H]12

>  <target under test>
S. aureus RN450

>  <endpoint result>
< 4 µg/mL

$$$$
>  <molecule>
CCCCOc1ccc(-c2ccc(N(C)C)cc2)c2c1C(=O)C1=C(O)[C@]3(O)C(=O)C(C(N)=O)=C(O)[C@@H](N(C)C)[C@@H]3C[C@@H]1C2

>  <target under test>
S. aureus RN450

>  <endpoint result>
< 4 µg/mL

$$$$

Please provide the recorded MIC for COc1ccc(CNCCc2ccccc2)cc1-c1ccc(O)c2c1C[C@H]1C[C@H]3[C@H](N(C)C)C(O)=C(C(N)=O)C(=O)[C@@]3(O)C(O)=C1C2=O , tested on S. aureus RN450.
< 4 µg/mL

Please provide the recorded MIC for CCCCOC1C(C(N)=O)=C(O)[C@@H](N(C)C)[C@@H]2[C@@H](O)[C@H]3C(=C(O)[C@]12O)C(=O)c1c(O)cccc1[C@@H]3C (stereo partly drawn) , tested on S. aureus RN450.
> 4 µg/mL

Please provide the recorded MIC for CN(C)c1cc(CNCc2cc[n+]([O-])cc2)c(O)c2c1C[C@H]1C[C@H]3[C@H](N(C)C)C(O)=C(C(N)=O)C(=O)[C@@]3(O)C(O)=C1C2=O , tested on S. aureus RN450.
> 4 µg/mL

Please provide the recorded MIC for CCC(=O)Nc1ccc2c(c1O)C(=O)C1=C(O)[C@]3(O)C(=O)C(C(N)=O)=C(O)[C@@H](N(C)C)[C@@H]3C[C@@H]1C2 , tested on S. aureus RN450.
< 4 µg/mL

Please provide the recorded MIC for CN(C)c1cc(CNCC(C)(C)C)c(O)c2c1C[C@H]1C[C@H]3[C@H](N(C)C)C(O)=C(C(N)=O)C(=O)[C@@]3(O)C(O)=C1C2=O [drawing 3433] , tested on S. aureus RN450.
< 4 µg/mL
